I'd appreciate it if you could supply pIC50 values for the items below.
# Test system: PNT2 cells
# protocol: MTT cytotoxicity assay in PNT2 cells
# Format: cell-based, human
# runConditions: Homo sapiens, PNT2, 48 h, 48 h of treatment
Numbers only, as −log10 of the molar value.

Before answering, review these 2 worked examples.
[
  {
    "compound": "CC1(C)OC2OC(C(O)COC3=CC(=O)c4ccccc4C3=O)C(O)C2O1 (stereo not shown)",
    "quantityKind": "pIC50",
    "measValue": 4.51
  },
  {
    "compound": "CC1(C)OC2OC3C(COC4=CC(=O)c5c(O)c(Cl)c(Cl)c(O)c5C4=O)OC(C)(C)OC3C2O1 (stereo not shown)",
    "quantityKind": "pIC50",
    "measValue": 5.68
  }
]

Provide pIC50 values for the following items, in order.
1. CC1(C)OC2OC3C(COC4=CC(=O)c5ccccc5C4=O)OC(C)(C)OC3C2O1 (stereo not shown)
2. CC1(C)OC2OC(C(O)COC3=CC(=O)c4c(O)c(Cl)c(Cl)c(O)c4C3=O)C(O)C2O1 (stereo not shown)

Result:
1: 4.79; 2: 5.35

---

# System: 22Rv1 cells
# protocol: MTT cytotoxicity assay in 22Rv1 cells
# Assay type: cell-based, human
# runConditions: Homo sapiens, 22Rv1, 48 h of treatment, cancer, read-out: IC50 (22Rv1)
I'd appreciate it if you could supply IC50 values for the items below.
One number for each entry, in µM.

Provide IC50 values for the following items, in order.
1. CC1(C)OC2OC(C(O)COC3=CC(=O)c4c(O)cccc4C3=O)C(O)C2O1 (stereo not shown) [Compound 7]
2. CC1(C)OC2OC(C(O)COC3=CC(=O)c4cccc(O)c4C3=O)C(O)C2O1 (stereo not shown) [Compound 11]
3. O=C1C(OC[C@H]2OC(O)[C@H](O)[C@@H](O)[C@@H]2O)=CC(=O)c2c(O)cccc21 (stereo partly shown) [Compound 8]
4. O=C1C=C(OC[C@H]2OC(O)[C@H](O)[C@@H](O)[C@@H]2O)C(=O)c2c(O)cccc21 (stereo partly shown) [Compound 12]

Result:
[1.61, 0.71, 30.1, 23.4]

---

# Test system: PNT2 cells
# protocol: MTT cytotoxicity assay in PNT2 cells
# Type: cell-based, human
# runConditions: Homo sapiens, PNT2, 48 h, 48 h of treatment
rule met if IC50 is below 6 µM. rule not met if not; exact matches included in rule not met.

[
  {
    "molecule": "O=C1C=C(OCC2OC(O)C(O)C(O)C2O)C(=O)c2c(O)ccc(O)c21 (stereo not shown) [Compound 16]",
    "className": "rule not met"
  },
  {
    "molecule": "CCc1c(O)c2c(c(O)c1OC)C(=O)C(OCC(O)C1OC3OC(C)(C)OC3C1O)=CC2=O (stereo not shown) [Compound 19]",
    "className": "rule not met"
  },
  {
    "molecule": "CC1(C)OC2OC(C(O)COC3=CC(=O)c4c(O)ccc(O)c4C3=O)C(O)C2O1 (stereo not shown) [Compound 15]",
    "className": "rule met"
  }
]

Task: For this molecule, is IC50 lower than 6 µM? O=C1C(OC[C@H]2OC(O)[C@H](O)[C@@H](O)[C@@H]2O)=CC(=O)c2c(O)cccc21 (stereo partly shown) [Compound 8]
Result: rule not met

Task: For this molecule, is IC50 lower than 6 µM? CCc1c(O)c2c(c(O)c1Cl)C(=O)C(OC[C@H]1OC(O)[C@H](O)[C@@H](O)[C@@H]1O)=CC2=O (stereo partly shown) [Compound 24]
Result: rule not met

Task: For this molecule, is IC50 lower than 6 µM? CC1(C)OC2OC3C(COC4=CC(=O)c5c(O)ccc(O)c5C4=O)OC(C)(C)OC3C2O1 (stereo not shown) [Compound 14]
Result: rule not met

Task: For this molecule, is IC50 lower than 6 µM? CCc1c(O)c2c(c(O)c1OC)C(=O)C(OCC1OC(C)(C)OC3C1OC1OC(C)(C)OC13)=CC2=O (stereo not shown) [Compound 18]
Result: rule not met

Task: For this molecule, is IC50 lower than 6 µM? CC1(C)OC2OC3C(COC4=CC(=O)c5cccc(O)c5C4=O)OC(C)(C)OC3C2O1 (stereo not shown) [Compound 10]
Result: rule not met
